plasma radioactive counts, MEAN values, listed per item
# assay details: In vivo metabolism test of 177Lu-labeled complex in SD rats (plasma radioactive counts)
# protocol conditions: mean of rats, 1 h after tail vein injection
Report only the number, with the unit cpm understood.

[[record]]
molecule = "O=C([O-])CN1CCN(CC(=O)[O-])CCN(CC(=O)NCC2CCC(C(=O)N[C@@H](Cc3ccc4ccccc4c3)C(=O)NCCCC[C@H](NC(=O)N[C@@H](CCC(=O)O)C(=O)O)C(=O)O)CC2)CCN(CC(=O)[O-])CC1.[177Lu+3] (some centres unmarked) [^177Lu-PSMA-617, reference compound]"
quantity_kind = "plasma radioactive counts, MEAN"
unit_spec = "cpm"
measurement = 6196


Next item in the queue.
Please list plasma radioactive counts, MEAN recorded for the molecule O=C([O-])CN1CCN(CC(=O)[O-])CCN(CC(=O)N2CCc3cc(C(=O)NC(Cc4ccc5ccccc5c4)C(=O)NCCCCC(NC(=O)NC(CCC(=O)O)C(=O)O)C(=O)O)ccc3C2)CCN(CC(=O)[O-])CC1.[177Lu+3] (centres unmarked) [^177Lu-E3]
3347

====

# assay details: In vivo metabolism test of 177Lu-labeled complex in SD rats (plasma radioactive counts)
# protocol conditions: mean of rats, 1 h after tail vein injection
quantity kind: plasma radioactive counts, MEAN (cpm)
Field format: number, assumed cpm, no unit text.

Solved cases (3 shown):
[[record]]
molecule = "O=C([O-])CN1CCN(CC(=O)[O-])CCN(CC(=O)Nc2nc3cc(C(=O)NC(Cc4ccc5ccccc5c4)C(=O)NCCCCC(NC(=O)NC(CCC(=O)O)C(=O)O)C(=O)O)ccc3s2)CCN(CC(=O)[O-])CC1.[177Lu+3] (stereo not shown) [^177Lu-E1]"
unit_spec = "cpm"
measurement = 3447

[[record]]
molecule = "O=C([O-])CN1CCN(CC(=O)[O-])CCN(CC(=O)NC23CC(C(=O)NC(Cc4ccc5ccccc5c4)C(=O)NCCCCC(NC(=O)NC(CCC(=O)O)C(=O)O)C(=O)O)(C2)C3)CCN(CC(=O)[O-])CC1.[177Lu+3] (stereo not shown) [^177Lu-E14]"
unit_spec = "cpm"
measurement = 6553

[[record]]
molecule = "O=C([O-])CN1CCN(CC(=O)[O-])CCN(CC(=O)N2CC3(CCC(C(=O)NC(Cc4ccc5ccccc5c4)C(=O)NCCCCC(NC(=O)NC(CCC(=O)O)C(=O)O)C(=O)O)CC3)C2)CCN(CC(=O)[O-])CC1.[177Lu+3] (stereo not shown) [^177Lu-E2]"
unit_spec = "cpm"
measurement = 6451


Now for another entry.
Provide plasma radioactive counts, MEAN value for the following molecule: O=C([O-])CN1CCN(CC(=O)[O-])CCN(CC(=O)N2CCC3(CCC(C(=O)NC(Cc4ccc5ccccc5c4)C(=O)NCCCCC(NC(=O)NC(CCC(=O)O)C(=O)O)C(=O)O)CC3)CC2)CCN(CC(=O)[O-])CC1.[177Lu+3] (stereo not shown) [^177Lu-E9]
3714

====

# assay details: In vivo metabolism test of 177Lu-labeled complex in SD rats (plasma radioactive counts)
# protocol conditions: mean of rats, 24 h after tail vein injection
Recorded plasma radioactive counts, MEAN by entry
Give the value, in units of cpm, as a plain number.

# count of solved cases: 5
[[record]]
compound = "O=C([O-])CN1CCN(CC(=O)[O-])CCN(CC(=O)Nc2nc3cc(C(=O)NC(Cc4ccc5ccccc5c4)C(=O)NCCCCC(NC(=O)NC(CCC(=O)O)C(=O)O)C(=O)O)ccc3s2)CCN(CC(=O)[O-])CC1.[177Lu+3] (stereo not drawn) [^177Lu-E1]"
measurement = 160

[[record]]
compound = "O=C([O-])CN1CCN(CC(=O)[O-])CCN(CC(=O)N2CCC3(CCC(C(=O)NC(Cc4ccc5ccccc5c4)C(=O)NCCCCC(NC(=O)NC(CCC(=O)O)C(=O)O)C(=O)O)CC3)CC2)CCN(CC(=O)[O-])CC1.[177Lu+3] (stereo not drawn) [^177Lu-E9]"
measurement = 170

[[record]]
compound = "O=C([O-])CN1CCN(CC(=O)[O-])CCN(CC(=O)NCC2CCC(C(=O)N[C@@H](Cc3ccc4ccccc4c3)C(=O)NCCCC[C@H](NC(=O)N[C@@H](CCC(=O)O)C(=O)O)C(=O)O)CC2)CCN(CC(=O)[O-])CC1.[177Lu+3] (stereo partly drawn) [^177Lu-PSMA-617, reference compound]"
measurement = 176

[[record]]
compound = "O=C([O-])CN1CCN(CC(=O)[O-])CCN(CC(=O)N2CCc3cc(C(=O)NC(Cc4ccc5ccccc5c4)C(=O)NCCCCC(NC(=O)NC(CCC(=O)O)C(=O)O)C(=O)O)ccc3C2)CCN(CC(=O)[O-])CC1.[177Lu+3] (stereo not drawn) [^177Lu-E3]"
measurement = 182

[[record]]
compound = "O=C([O-])CN1CCN(CC(=O)[O-])CCN(CC(=O)N2CC3(CCC(C(=O)NC(Cc4ccc5ccccc5c4)C(=O)NCCCCC(NC(=O)NC(CCC(=O)O)C(=O)O)C(=O)O)CC3)C2)CCN(CC(=O)[O-])CC1.[177Lu+3] (stereo not drawn) [^177Lu-E2]"
measurement = 169


Here's the next entry for you.
Output plasma radioactive counts, MEAN of O=C([O-])CN1CCN(CC(=O)[O-])CCN(CC(=O)NC23CC(C(=O)NC(Cc4ccc5ccccc5c4)C(=O)NCCCCC(NC(=O)NC(CCC(=O)O)C(=O)O)C(=O)O)(C2)C3)CCN(CC(=O)[O-])CC1.[177Lu+3] (stereo not drawn) [^177Lu-E14]
177

====

Catalogue of compounds with associated plasma radioactive counts, MEAN
# assay details: In vivo metabolism test of 177Lu-labeled complex in SD rats (plasma radioactive counts)
# protocol conditions: mean of rats, 8 h after tail vein injection
Respond with the bare value in cpm.

[[record]]
compound = "O=C([O-])CN1CCN(CC(=O)[O-])CCN(CC(=O)Nc2nc3cc(C(=O)NC(Cc4ccc5ccccc5c4)C(=O)NCCCCC(NC(=O)NC(CCC(=O)O)C(=O)O)C(=O)O)ccc3s2)CCN(CC(=O)[O-])CC1.[177Lu+3] (stereo not drawn) [^177Lu-E1]"
measurement = 177

[[record]]
compound = "O=C([O-])CN1CCN(CC(=O)[O-])CCN(CC(=O)NC23CC(C(=O)NC(Cc4ccc5ccccc5c4)C(=O)NCCCCC(NC(=O)NC(CCC(=O)O)C(=O)O)C(=O)O)(C2)C3)CCN(CC(=O)[O-])CC1.[177Lu+3] (stereo not drawn) [^177Lu-E14]"
measurement = 203

[[record]]
compound = "O=C([O-])CN1CCN(CC(=O)[O-])CCN(CC(=O)N2CCc3cc(C(=O)NC(Cc4ccc5ccccc5c4)C(=O)NCCCCC(NC(=O)NC(CCC(=O)O)C(=O)O)C(=O)O)ccc3C2)CCN(CC(=O)[O-])CC1.[177Lu+3] (stereo not drawn) [^177Lu-E3]"
measurement = 176

[[record]]
compound = "O=C([O-])CN1CCN(CC(=O)[O-])CCN(CC(=O)NCC2CCC(C(=O)N[C@@H](Cc3ccc4ccccc4c3)C(=O)NCCCC[C@H](NC(=O)N[C@@H](CCC(=O)O)C(=O)O)C(=O)O)CC2)CCN(CC(=O)[O-])CC1.[177Lu+3] (stereo partly drawn) [^177Lu-PSMA-617, reference compound]"
measurement = 182

[[record]]
compound = "O=C([O-])CN1CCN(CC(=O)[O-])CCN(CC(=O)N2CC3(CCC(C(=O)NC(Cc4ccc5ccccc5c4)C(=O)NCCCCC(NC(=O)NC(CCC(=O)O)C(=O)O)C(=O)O)CC3)C2)CCN(CC(=O)[O-])CC1.[177Lu+3] (stereo not drawn) [^177Lu-E2]"
measurement = 184


Tell us which plasma radioactive counts, MEAN value is on record for O=C([O-])CN1CCN(CC(=O)[O-])CCN(CC(=O)N2CCC3(CCC(C(=O)NC(Cc4ccc5ccccc5c4)C(=O)NCCCCC(NC(=O)NC(CCC(=O)O)C(=O)O)C(=O)O)CC3)CC2)CCN(CC(=O)[O-])CC1.[177Lu+3] (stereo not drawn) [^177Lu-E9]
172

====

# assay target: PSMA protein (Homo sapiens (Human), UniProt Q04609)
# Sequence (Q04609 whole entry): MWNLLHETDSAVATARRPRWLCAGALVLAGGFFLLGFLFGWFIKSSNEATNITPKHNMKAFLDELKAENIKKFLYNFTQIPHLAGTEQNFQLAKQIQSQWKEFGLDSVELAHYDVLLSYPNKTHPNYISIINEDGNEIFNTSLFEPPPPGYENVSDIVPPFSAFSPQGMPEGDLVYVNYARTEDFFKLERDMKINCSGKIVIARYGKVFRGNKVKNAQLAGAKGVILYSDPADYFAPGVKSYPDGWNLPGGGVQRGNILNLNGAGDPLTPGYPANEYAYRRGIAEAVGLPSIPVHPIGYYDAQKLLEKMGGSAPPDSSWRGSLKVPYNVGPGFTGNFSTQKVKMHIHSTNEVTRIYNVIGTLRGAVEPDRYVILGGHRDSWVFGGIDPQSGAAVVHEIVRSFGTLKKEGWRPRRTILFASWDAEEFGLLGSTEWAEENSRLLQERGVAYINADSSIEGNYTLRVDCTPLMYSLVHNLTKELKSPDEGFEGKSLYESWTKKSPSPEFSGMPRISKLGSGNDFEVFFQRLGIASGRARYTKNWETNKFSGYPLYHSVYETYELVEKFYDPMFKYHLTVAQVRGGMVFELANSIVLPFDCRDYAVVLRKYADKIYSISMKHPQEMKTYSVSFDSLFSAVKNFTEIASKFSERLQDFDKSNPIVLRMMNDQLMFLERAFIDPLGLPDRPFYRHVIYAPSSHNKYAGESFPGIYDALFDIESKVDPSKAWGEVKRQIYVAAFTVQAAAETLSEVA
# assay details: In vitro binding test of compound and PSMA protein (Biacore)
# protocol conditions: Biacore 8K, 15° C., 1:1 binding model, KD in M
quantity kind: pkD (pKD=−Log KD, binding affinity to PSMA protein)

[[record]]
compound = "O=C(O)CC[C@H](NC(=O)N[C@@H](CCCCNC(=O)[C@H](Cc1ccc2ccccc2c1)NC(=O)c1cnc2cc(NC(=O)CN3CCN(CC(=O)O)CCN(CC(=O)O)CCN(CC(=O)O)CC3)ccc2c1)C(=O)O)C(=O)O"
assay_target = "PSMA protein (Homo sapiens (Human), UniProt Q04609)"
measurement = 10.15

[[record]]
compound = "O=C(O)CC[C@H](NC(=O)N[C@@H](CCCCNC(=O)[C@H](Cc1ccc2ccccc2c1)NC(=O)C1CC2(C1)CN(C(=O)CN1CCN(CC(=O)O)CCN(CC(=O)O)CCN(CC(=O)O)CC1)C2)C(=O)O)C(=O)O"
assay_target = "PSMA protein (Homo sapiens (Human), UniProt Q04609)"
measurement = 10.00

[[record]]
compound = "O=C(O)CC[C@H](NC(=O)N[C@@H](CCCCNC(=O)[C@H](Cc1ccc2ccccc2c1)NC(=O)C1C2CN(C(=O)CN3CCN(CC(=O)O)CCN(CC(=O)O)CCN(CC(=O)O)CC3)CC21)C(=O)O)C(=O)O (stereo partly drawn)"
assay_target = "PSMA protein (Homo sapiens (Human), UniProt Q04609)"
measurement = 9.49

[[record]]
compound = "O=C(O)CC[C@H](NC(=O)N[C@@H](CCCCNC(=O)[C@H](Cc1ccc2ccccc2c1)NC(=O)C1CCC(NC(=O)CN2CCN(CC(=O)O)CCN(CC(=O)O)CCN(CC(=O)O)CC2)CC1)C(=O)O)C(=O)O (stereo partly drawn)"
assay_target = "PSMA protein (Homo sapiens (Human), UniProt Q04609)"
measurement = 9.44

[[record]]
compound = "O=C(O)CC[C@H](NC(=O)N[C@@H](CCCCNC(=O)[C@H](Cc1ccc2ccccc2c1)NC(=O)c1ccc2cc(NC(=O)CN3CCN(CC(=O)O)CCN(CC(=O)O)CCN(CC(=O)O)CC3)ccc2c1)C(=O)O)C(=O)O"
assay_target = "PSMA protein (Homo sapiens (Human), UniProt Q04609)"
measurement = 9.82


// below: pkD (pKD=−Log KD, binding affinity to PSMA protein) requested for another compound
Give pkD (pKD=−Log KD, binding affinity to PSMA protein) for the following compound: O=C(O)CC[C@H](NC(=O)NC(CCCCNC(=O)[C@H](Cc1ccc2ccccc2c1)NC(=O)c1ccc2c(c1)CCN(C(=O)CN1CCN(CC(=O)O)CCN(CC(=O)O)CCN(CC(=O)O)CC1)C2)C(=O)O)C(=O)O (stereo partly drawn)
9.26
